Compiled from multiple publications: pKi readings for Serine/threonine-protein kinase pim-1 (Homo sapiens).
# log scale: pKi equals minus log10 of the concentration in mol/L

A selection of reference data follows.
Q: # assay system Serine/threonine-protein kinase pim-1 (Homo sapiens): give pKi of Cn1cc(-c2cc3c(-c4cccc(N5CCOCC5)n4)n[nH]c3cn2)cn1
Ans: 9.43

Q: # assay system Serine/threonine-protein kinase pim-1 (Homo sapiens): give pKi of N#CCc1n[nH]c2cnc(-c3cccnc3)cc12
Ans: 6.08

Q: # assay system Serine/threonine-protein kinase pim-1 (Homo sapiens): give pKi of c1cncc(-c2cc3c(N4CCCC4)n[nH]c3cn2)c1
Ans: 8.00

***
Q: # assay system Serine/threonine-protein kinase pim-1 (Homo sapiens): give pKi of c1cc(-c2n[nH]c3cnc(-n4ccnc4)cc23)nc(N2CCNCC2)c1
Ans: 8.74

Q: # assay system Serine/threonine-protein kinase pim-1 (Homo sapiens): give pKi of Cn1ncc(NC(=O)c2nc(-c3cc(F)ccc3F)sc2N)c1N1CC[C@@H](N)[C@@H](F)CC1
Ans: 10.24

Q: # assay system Serine/threonine-protein kinase pim-1 (Homo sapiens): give pKi of Cn1ncc(NC(=O)c2nc(-c3ccccc3)ccc2N)c1N1CCC(N)CC1
Ans: 9.12

Q: # assay system Serine/threonine-protein kinase pim-1 (Homo sapiens): give pKi of Cn1ncc(NC(=O)c2nc(-c3cc(F)ccc3F)sc2N)c1N1CC[C@H](N)CC(F)(F)C1
Ans: 11.40

Q: # assay system Serine/threonine-protein kinase pim-1 (Homo sapiens): give pKi of CCc1ccc(-c2n[nH]c3cnc(-c4cnn(CC)c4)cc23)nc1N1CCC[C@H](N)C1
Ans: 10.89

Q: # assay system Serine/threonine-protein kinase pim-1 (Homo sapiens): give pKi of Cc1n[nH]c2cnc(-c3cnccc3N3CCC[C@H](N)C3)cc12
Ans: 5.46

Q: # assay system Serine/threonine-protein kinase pim-1 (Homo sapiens): give pKi of Fc1ccc(-c2cc3c(-c4cccc(N5CCNCC5)n4)n[nH]c3cn2)cn1
Ans: 9.10
